Listed here are variants together with their documented protein stability index.
B1: ZNF8 (parent)
chain: RTHTGEKPYTCSVCGKSFSRTTCL

variants of: B1; test: protein stability index of a GFP-peptide fusion (GPS, HEK-293T) (PSI 1-6); higher = more stable; details: c terminus: a fixed tail appended;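 also: lentivirally expressed fusions sorted by FACS into six bins by GFP to DsRed ratio, PSI derived from sequencing read proportions per bin multiplied by bin number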
Answer field: number only, no words.

Known results for variants:
- Sequence Record: "RTHTGEKRYTCSVCGKSFSRTTCL [P8R]"
  protein stability index: 2.46
- Sequence Record: "RTHTGEKPYTCSVCGKSFSRETCL [T21E]"
  protein stability index: 2.67
- Sequence Record: "RTHTGEKPYTCSVCGKSFSLTTCL [R20L]"
  protein stability index: 2.01
- Sequence Record: "RTHTGEKPYTCSVCGKSFWRTTCL [S19W]"
  protein stability index: 2.42
- Sequence Record: "RTHTGEKPHTCSVCGKSFSRTTCL [Y9H]"
  protein stability index: 2.11

Returns the measured protein stability index for the input variant. Input: RTHTGEKPYTCSVCGKSFSRTDCL [T22D]
2.27

Further, for RTHTGEKPYTCSVEGKSFSRTTCL [C14E] ?
2.46

Further, for RTHTGEKPYTCSVCGKSFSVTTCL [R20V] ?
2.02

Further, for RTHTVEKPYTCSVCGKSFSRTTCL [G5V] ?
2.87

Further, for RTHTGEKNYTCSVCGKSFSRTTCL [P8N] ?
2.93

Further, for RTHTGEKPYTCSVCGKSFSRTKCL [T22K] ?
2.97

Further, for RTHTGEQPYTCSVCGKSFSRTTCL [K7Q] ?
2.08

Further, for STHTGEKPYTCSVCGKSFSRTTCL [R1S] ?
2.34

Further, for RTHTGEKPYTCSVCGKSFSRTTCS [L24S] ?
2.06

Further, for RTHTGEKPYTCSVRGKSFSRTTCL [C14R] ?
2.19

Further, for RTHKGEKPYTCSVCGKSFSRTTCL [T4K] ?
3.02

Further, for RTHTGEKPYTCSVCGKRFSRTTCL [S17R] ?
2.77
